Origin of the recorded values: patent US20250215030A1

# Target entity: pSTAT3 (pY705-STAT3) (Homo sapiens, UniProt P40763)
# Construct: host or cells: cryopreserved PBMC
# Sequence (P40763 whole entry): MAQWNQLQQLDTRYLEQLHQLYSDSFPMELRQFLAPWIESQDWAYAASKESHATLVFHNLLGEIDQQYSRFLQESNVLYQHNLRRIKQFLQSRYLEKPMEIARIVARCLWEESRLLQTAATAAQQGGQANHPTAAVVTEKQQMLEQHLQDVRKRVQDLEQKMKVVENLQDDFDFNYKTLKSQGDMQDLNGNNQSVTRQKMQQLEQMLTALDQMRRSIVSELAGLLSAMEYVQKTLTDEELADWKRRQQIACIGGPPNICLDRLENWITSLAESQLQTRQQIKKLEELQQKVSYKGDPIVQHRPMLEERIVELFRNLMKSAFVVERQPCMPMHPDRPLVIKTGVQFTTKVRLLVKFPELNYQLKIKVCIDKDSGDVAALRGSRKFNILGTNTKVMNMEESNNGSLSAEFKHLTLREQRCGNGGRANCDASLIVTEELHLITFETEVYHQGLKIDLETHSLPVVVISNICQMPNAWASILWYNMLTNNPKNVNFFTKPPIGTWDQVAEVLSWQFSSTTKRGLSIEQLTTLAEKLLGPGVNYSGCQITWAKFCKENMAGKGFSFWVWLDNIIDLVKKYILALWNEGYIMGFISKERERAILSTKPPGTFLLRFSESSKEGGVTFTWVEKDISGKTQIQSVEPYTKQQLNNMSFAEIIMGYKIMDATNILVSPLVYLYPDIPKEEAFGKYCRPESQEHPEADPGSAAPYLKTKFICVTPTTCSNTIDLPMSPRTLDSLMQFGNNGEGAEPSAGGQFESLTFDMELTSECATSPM
# Method description: MSD-pSTAT-PBMC Assay (pSTAT3, IL-6 stimulated)
# Type: cell-based
# Test conditions: PBMC, compound 3 hrs, then 10 ng/mL IL-6 for 10 min; MSD pY705-STAT3; read-out: pSTAT3
# IC50 listing for each entry below

Examples with their reported IC50 follow.
CC(C)(C)OC(=O)OCOP(=O)(OCOC(=O)OC(C)(C)C)C(F)(F)c1ccc2sc(C(=O)N[C@H]3C[C@@H]4C[C@@H]4C[C@H]4CC[C@@H](C(=O)N5CC(C(=O)N6CCOCC6)C5)N4C3=O)cc2c1 | 1000 to 3000 nM
CC(C)(C)C(=O)OCOP(=O)(OCOC(=O)C(C)(C)C)C(F)(F)c1ccc2sc(C(=O)N[C@H]3C[C@H]4C[C@H]4C[C@H]4CC[C@@H](C(=O)N5CC(n6ccnc6)C5)N4C3=O)cc2c1 | < 100 nM
CC(C)CC(=O)SCCOP(=O)(N[C@@H](C)C(=O)OCc1ccccc1)C(F)(F)c1ccc2sc(C(=O)N[C@H]3C[C@@H]4C[C@@H]4C[C@H]4CC[C@@H](C(=O)N5CC(C(=O)N6CCOCC6)C5)N4C3=O)cc2c1 (some centres unmarked) | > 3000 nM
CC(C)OC(=O)[C@H](C)NP(=O)(Cc1ccc2sc(C(=O)N[C@H]3C[C@@H]4C[C@@H]4C[C@H]4CC[C@@H](C(=O)N5CC(C(=O)N6CCOCC6)C5)N4C3=O)cc2c1)Oc1ccccc1 (some centres unmarked) | 100 to 1000 nM
CCCOC(=O)[C@H](C)NP(=O)(OCC(F)(F)F)C(F)c1ccc2sc(C(=O)N[C@H]3C[C@@H]4C[C@@H]4C[C@H]4CC[C@@H](C(=O)N5CC(c6cnccc6C)C5)N4C3=O)cc2c1 (some centres unmarked) | < 100 nM

Kindly review the next compound as well.
Need IC50, item CC(C)OC(=O)[C@H](Cc1ccccc1)NP(=O)(Cc1ccc2sc(C(=O)N[C@H]3C[C@@H]4C[C@@H]4C[C@H]4CC[C@@H](C(=O)N5CC(C(=O)N6CCOCC6)C5)N4C3=O)cc2c1)Oc1ccccc1 (some centres unmarked) 100 to 1000 nM
